// provenance: patent US20180362628A1

target.or.system: T1, Recombinant CSP (Wellcome Trust Sanger Institute, FIG. 22), CSP ectodomain with BirA biotinylation tag, … (Plasmodium falciparum strain 3D7, UniProt Q7K740 19-376, biotinylated at the BirA substrate peptide)
T1 construct: extracellular domain; Expressed in HEK293, 45 kDa; order of the tags is that of the legend, not confirmed; also called biotinylated recombinant CSP
method.description: SPR, IgG1 captured, CSP as analyte, 40 C; apparent affinity (avidity)
measured.quantity: pKd
Lab note: report pKd as minus log10 of the concentration in molar units, number only.

binder | pKd
Antibody 666, human IgG1 (antibody, V domains shown, human IgG1; also called Ab666) VH: QVQLVQSGAEVKKPGASVKVSCKASGYTFTNYAMHWVRQAPGQRLEWMGWINAGNGNTKYSQNFQGRVTITRDTSASTAYMELSSLRSEDTAVYYCARDEYYASGSYYDYYYYGMDVWGQGTTVTVTS VL: QSALTQPASVSGSPGQSITISCTGTSSDVGVYNYVSWFQQHPGKAPKLMIYNVSKRPSGVSNRFSGSKSGNTASLTISGLQAEDEADYYCCSYAGSSTWVFGGGTNLTVL | 9.74
Antibody 667, human IgG1 (antibody, V domains shown, human IgG1 with human lambda light chain constant region; also called AB-000667; Ab667) VH: QVQLVQSGAEVKKPGASVKVSCRASGYTFTNYAMHWVRQAPGQRLEWMGWINAGNGYTKYSQKFQDRVTITRDTSATTAYMELSSLRSEDTAMYYCARDSFYDILSGPVYHYYGMDVWGQGTTVTVSS VL: QSALTQPDSVSGSPGQSITISCTGTSNDVGIYNHVSWYQQHPGKAPKLMIYDVNKRPSGISNRFSGSKSGDTASLTISGLQAEDEADYYCCSYAGSSAWVFGGGTKLTVL | 9.51
Antibody 669, human IgG1 (antibody, V domains shown, human IgG1; HEK (Expi293F) product; also called AB-000669; Ab669) VH: QVQLVQSGAEVKKPGASVRVSCKASGFTFTSYAMHWVRQAPGQRLEWMGWINAGNGHTKYSQKFQDRVAITRDTSATTVYMDLSSLRSEDTAVYYCTRDGFCTSTTCSDHYGMDVWGQGTTVTVSS VL: QSALTQPASVSGSPGQSITISCTGTSSDVGSYNYVSWYQQHPGKAPKFMIYDVSKRPSGVSNRFSGSKSGNTASLTISGLQAEDEADYYCCSYAGSSTWVFGGGTKLTVL | 9.33

Now consider a different binder.
Asked: // fetch pKd given entry Antibody 668, human IgG1 (antibody, V domains shown, human IgG1 with human lambda light chain constant region; HEK293 product; also called AB-000668; Ab668) VH: QVQLVQSGAEVKKPGASVKVSCKASGFTFTDYAMHWVRQAPGQRLEWMGWINAGNGYTKYSQKFQDRLTITRDTFASTVYMELSSLRSEDTTVYYCARDGFCPSNTCSGYYGMDVWGQGTTVTVSS VL: QSALTQPASVSGSPGQSITISCTGTSSDVGSYNYVSWYQQHPGKAPKLMIYDVNTRPSGVSIRFSASKSGNTASLTVSGLQAEDEAVYYCSSYAGSSTWVFGGGTKLTVL
Given back: 10.30
